Attribution: paper PMC6299372

targetEntity: MsepCSP5 (Mythimna separata)
Sequence (A0A5H2NAD7 1-127): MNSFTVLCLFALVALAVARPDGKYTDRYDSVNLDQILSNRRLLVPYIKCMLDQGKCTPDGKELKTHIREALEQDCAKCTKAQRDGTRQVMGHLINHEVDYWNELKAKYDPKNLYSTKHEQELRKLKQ
testDescription: Fluorescence competitive binding assay with the probe 1-NPN
conditionsUsed: IC50, pH 7.4; displacement of 1-NPN from MsepCSP5
measuredQuantity: IC50 (µM)

Example results:
Input CCCCCCCCCCCCCCCCCCCC . Output IC50: 47.8

Input CCCCCC(C)O (stereo not shown) . Output IC50: 63

Input CCCCCCCCCC(C)=O . Output IC50: 21.6

[1] CC/C=C\CCO [Cis-3-hexen-1-ol]
[2] CCCCCCCC
[3] CCC/C=C/CO [Trans-2-hexen-1-ol]
Kindly order the items shown according to IC50, from the highest value down. Form field (ranking): labels in requested order.
1, 3, 2

[I] CCCCCCCCCCCCC
[II] CCCCCCCCCCCCCCCCCCC
For the pair I and II , which entry has the numerically smaller recorded IC50? Your answer should be the label attached to the chosen record.
II
